What follows is literature data on Ki for D(4) dopamine receptor (Homo sapiens, UniProt P21917).

N#CC(C#N)=Cc1[nH]ccc1CN1CCN(c2ccc(Cl)cc2)CC1	125 nM
c1ccc(CN2CCC(c3cc(-c4ccccc4)[nH]n3)CC2)cc1	11 nM
OC(CCn1cc(-c2ccc(-c3ccccc3)cc2)nn1)CN1CCN(c2cccc(Cl)c2Cl)CC1 (racemic)	> 7000 nM
O=C1CCc2ccc(OCCCCN3CCC(n4c(=O)[nH]c5ccccc54)CC3)cc2N1	1030 nM

Under D(4) dopamine receptor (Homo sapiens, UniProt P21917): Ki value of C(=C\c1cc(CCCCN2CCN(c3ccccc3)CC2)on1)/c1ccccc1 ?
346 nM

###

Reported Ki on D(4) dopamine receptor (Homo sapiens) for assorted compounds, compiled from publications.
Provide a numeric answer, followed by its unit.

Here is how some compounds turned out for Ki.
C#Cc1cc(CN2CCN(c3ccccc3OC)CC2)c2cccccc1-2	9.5 nM
CCCCn1cc(CCCOc2ccc(C(=O)NCCCCN3CCCN(c4ccc(O)c5[nH]c(=O)ccc45)CC3)cc2OC)nn1	2100 nM
c1ccc(CNCCOc2cccc3[nH]ncc23)cc1	315 nM
Cc1cc2nc(C)c(CN3CCN(c4ccc(Cl)cc4)CC3)n2c(C)n1	66 nM

Here's the next entry for you.
Need Ki, item COc1ccccc1N1CCN(CCCCCOc2ccc3ccc(=O)[nH]c3c2)CC1
201 nM

###

Compiled log10 Ki measurements on UniProtKB P21917 taken from the literature.
Units before log transform: nM; reported quantity: Ki; transform: log10.

Example cases with answers are listed next.
Fc1ccc(OC[C@@H]2CC[C@H]3CN(c4ncccn4)CCN3C2)cc1	0.45
C[Si](C)(C)c1cccc2c(CN3CCN(c4ccc(Cl)cc4)CC3)cnn12	0.45
O=C(NCCCCN1CCN(c2cccc(Cl)c2Cl)CC1)c1cc2cc(I)ccc2s1	2.74
COc1cc(NC(=O)C2CC2)c(Cl)cc1C(=O)N[C@H]1CCNC1	3.34
O=C(CCN1CCN(c2ccc(CO)c(Cl)c2)CC1)c1ccc(Cl)cc1	1.78

Notebook: pull reported log10 Ki for UniProtKB P21917, entry Clc1ccc2c(c1)N=C(N1CCN(CCc3ccccc3)CC1)c1cccnc1O2
1.62

Recall the recorded log10 Ki for COC(=O)c1ccc(OC[C@@H]2CC[C@H]3CN(c4ncccn4)CCN3C2)cc1 with UniProtKB P21917 and state it.
2.10

Notebook entry, UniProtKB P21917 assay: log10 Ki of CN1CCc2ccccc2Cc2ccc(O)c(Cl)c2CC1 = ?
0.72

What log10 Ki appears in the records for this compound with UniProtKB P21917? COc1c(C(=O)NCC[C@@H]2CCN(Cc3ccccc3)C2)cc(Br)c2ccccc12 (stereo in doubt; 3l)
2.70

Record FC(F)(F)c1cccc(COC2CCN(Cc3cc4ccc(Cl)cc4[nH]3)CC2)c1 : what is its log10 Ki with UniProtKB P21917?
2.32

###

target-under-test: D(4) dopamine receptor (Homo sapiens, UniProt P21917)
Sequence (P21917 whole entry): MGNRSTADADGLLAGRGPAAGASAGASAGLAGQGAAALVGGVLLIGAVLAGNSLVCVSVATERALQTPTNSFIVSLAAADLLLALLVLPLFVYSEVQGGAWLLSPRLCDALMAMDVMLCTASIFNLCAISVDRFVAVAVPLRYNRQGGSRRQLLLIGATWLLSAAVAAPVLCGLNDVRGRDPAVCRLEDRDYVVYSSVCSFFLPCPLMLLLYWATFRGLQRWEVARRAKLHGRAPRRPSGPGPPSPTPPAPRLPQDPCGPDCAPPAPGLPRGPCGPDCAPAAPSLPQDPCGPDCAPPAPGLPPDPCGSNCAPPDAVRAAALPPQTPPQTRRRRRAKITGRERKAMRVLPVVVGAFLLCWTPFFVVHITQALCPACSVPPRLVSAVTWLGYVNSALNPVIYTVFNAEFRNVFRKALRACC
Here we gather log10 of Ki data for D(4) dopamine receptor (Homo sapiens, UniProt P21917) reported by several publications.
All values: base-10 log of Ki in nM.

COc1ccccc1N1CCN(CCCCNC(=O)c2ccc(-c3cn(Cc4ccc(-c5ccc(Cn6cc(-c7ccc(C(=O)NCCCCN8CCN(c9ccccc9OC)CC8)cc7)nn6)cc5)cc4)nn3)cc2)CC1	2.93
C#CC1=CC[C@@H](N(CCC)CCCCNC(=O)c2ccc(-c3ccccc3)cc2)CC1	1.04
COc1ccc(Cl)cc1CN1CCN(CC(=O)N2c3ccccc3C[C@H]2C)CC1	0.70
COc1ccccc1N1CCN(CCCCNC(=O)c2cccc(-c3cn(Cc4ccc(-c5ccc(Cn6cc(-c7cccc(C(=O)NCCCCN8CCN(c9ccccc9OC)CC8)c7)nn6)cc5)cc4)nn3)c2)CC1	3.53
N#CC(C#N)=Cc1ccc(CN2CCN(c3ccccc3)CC2)[nH]1	0.97
O=c1[nH]c2ccc3c(c2[nH]1)O[C@@H](CNCc1ccccc1)CC3	0.85
Fc1ccccc1N1CCN(Cc2cnn(-c3ccccc3)c2)CC1	-0.15
CCOc1ccccc1N1CCN(Cc2csc3ccccc23)CC1	0.65
c1ccc(CCC2CN(Cc3ccccc3)CCO2)cc1 (racemic)	2.61
Cc1ccc(C(=O)NCN2CCN(c3ccccc3C#N)CC2)cc1	0.81

Look up log10 of Ki: COc1cc(NC(=O)C2CCCCC2)c(Cl)cc1C(=O)N[C@H]1CCN(Cc2ccccc2)C1
2.04

Entry under review: CN1CCc2cc(Cl)c(O)cc2[C@H]2c3cccc(CO)c3CC[C@@H]21 . Reported log10 of Ki?
3.80

Please look up its log10 of Ki: Cc1cccc2cc(CNCc3ccccc3)c(Cl)nc12
2.74

Quick check: log10 of Ki of Cc1ccc(CN2CCC[C@H](OCc3ccc(F)c(C)c3)C2)cc1 ?
2.22

Which log10 of Ki value is on record for COc1ccccc1N1CCN(Cc2cc(CN3CCN(C)CC3)c3cccccc2-3)CC1 ?
0.58

Find the recorded log10 of Ki belonging to OC1(Cc2ccc(Cl)cc2)CCN(Cc2c[nH]c3ccccc23)CC1 and report it.
3.59

###

target-under-test: D(4) dopamine receptor (Homo sapiens)
Sequence (P21917 whole entry): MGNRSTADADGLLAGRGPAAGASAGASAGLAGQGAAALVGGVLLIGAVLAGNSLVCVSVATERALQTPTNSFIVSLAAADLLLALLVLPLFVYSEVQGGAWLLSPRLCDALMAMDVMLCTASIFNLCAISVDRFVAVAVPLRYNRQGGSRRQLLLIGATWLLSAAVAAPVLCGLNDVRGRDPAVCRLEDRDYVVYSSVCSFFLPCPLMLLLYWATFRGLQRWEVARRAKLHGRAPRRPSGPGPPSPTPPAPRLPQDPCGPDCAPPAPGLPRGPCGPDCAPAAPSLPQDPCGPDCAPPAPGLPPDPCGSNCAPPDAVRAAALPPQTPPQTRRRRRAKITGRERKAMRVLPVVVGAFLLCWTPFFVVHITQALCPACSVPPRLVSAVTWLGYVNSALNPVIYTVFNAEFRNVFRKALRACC
# literature pull: D(4) dopamine receptor (Homo sapiens) Ki
Kindly provide the numeric value in nM only, without the unit symbol.

Which Ki is listed for O=Cc1cnn2ccc(-n3cc(CCCN4CCN(c5cccc(Cl)c5Cl)CC4)nn3)cc12 ?
130

I have this compound here, O=C(NC1CCN(Cc2ccc(Cl)cc2)CC1)c1ccc2ccccc2c1 , and I need its recorded Ki.
37

Given COc1ccccc1N1CCN(CCCNC(=O)NCc2ccc(F)cc2-c2ccccc2)CC1 , state its recorded Ki.
2.7

Need Ki of CCCCn1cc(CCCOc2ccc(C(=O)NCCCCN(CCC)C3Cc4ccccc4C3)cc2OC)nn1 , thanks.
42

Dear colleague, I am looking for the recorded Ki of the following compound: CCCCC(C)(C)C(=O)NCCN1CCN(c2ccc(Cl)cc2)CC1
31.6

What value of measured Ki is listed for O=C(NCCCCN1CCN(c2cccc(F)c2F)CC1)c1cc2ccc1CCc1ccc(cc1)CC2 ?
18

Item under review: COc1ccc(N(Cc2ccccc2)NC(=O)NCCCN2CCN(c3ccccc3OC)CC2)cc1 . Reported Ki?
1.7

Form field: reported Ki of O=C1CCc2ccccc2N1CCCN1CCC(CCCO)CC1
74.1

What value of Ki has been reported for the following compound? O/N=C/c1cnn2ccc(OCCCCN3CCN(c4cccc(Cl)c4Cl)CC3)cc12 (stereo in doubt; 8a)
5.3

###

target-under-test: D(4) dopamine receptor (Homo sapiens, UniProt P21917)
Sequence (P21917 whole entry): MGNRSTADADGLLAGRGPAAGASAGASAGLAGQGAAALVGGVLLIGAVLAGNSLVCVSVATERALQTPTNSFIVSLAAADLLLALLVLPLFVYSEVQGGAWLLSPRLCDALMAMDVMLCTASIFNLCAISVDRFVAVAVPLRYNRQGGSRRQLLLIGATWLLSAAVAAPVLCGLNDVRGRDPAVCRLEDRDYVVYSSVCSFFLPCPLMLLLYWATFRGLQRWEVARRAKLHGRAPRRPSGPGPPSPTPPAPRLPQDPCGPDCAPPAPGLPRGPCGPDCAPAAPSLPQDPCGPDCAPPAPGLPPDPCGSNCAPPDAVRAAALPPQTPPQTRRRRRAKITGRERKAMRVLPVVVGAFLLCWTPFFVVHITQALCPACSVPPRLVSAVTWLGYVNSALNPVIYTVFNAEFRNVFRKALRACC
// molecules with log10(Ki) on D(4) dopamine receptor (Homo sapiens, UniProt P21917), multi-source literature
Recorded Ki (log10, µM)

Examples with answers:
COc1ccccc1N1CCCN(CCCCNC(=O)c2ccc(-c3ccccc3)s2)CC1	-0.47
CN1CCc2cc(Cl)c(O)cc2[C@H]2c3cccc(-c4cccc(C#N)c4)c3CC[C@@H]21	1.00
COc1cc(CN2CCN(C)CC2)ccc1OCCCc1cn(CCCCCCCCn2cc(CCCOc3ccc(CN4CCN(c5ccccc5OC)CC4)cc3OC)nn2)nn1	-1.92
Oc1ccc(N2CCN(CCCCOc3ccn4nccc4c3)CC2)c2cccnc12	-1.26
C[C@@H]1Cc2ccccc2N1C(=O)CN1CCN(Cc2ccc3c(c2)OCO3)CC1	-2.52

Param readout = log10(Ki); param system = D(4) dopamine receptor (Homo sapiens, UniProt P21917); param query = COc1ccccc1N1CCCN(CCCCNC(=O)c2ccc(C)s2)CC1 ; response: value
-0.73

Reported log10(Ki) for D(4) dopamine receptor (Homo sapiens, UniProt P21917), given N#CC(C#N)=Cc1[nH]ccc1CN1CCN(c2ccccc2)CC1 ?
-0.80

What is its log10(Ki) for D(4) dopamine receptor (Homo sapiens, UniProt P21917)? Entry: COc1cccc(CN2CCC(NC(=O)c3ccc4ccccc4c3)CC2)c1
-1.80
